Biological target: STAT3 activity (p-STAT3) (Homo sapiens)
Sequence (P40763 whole entry): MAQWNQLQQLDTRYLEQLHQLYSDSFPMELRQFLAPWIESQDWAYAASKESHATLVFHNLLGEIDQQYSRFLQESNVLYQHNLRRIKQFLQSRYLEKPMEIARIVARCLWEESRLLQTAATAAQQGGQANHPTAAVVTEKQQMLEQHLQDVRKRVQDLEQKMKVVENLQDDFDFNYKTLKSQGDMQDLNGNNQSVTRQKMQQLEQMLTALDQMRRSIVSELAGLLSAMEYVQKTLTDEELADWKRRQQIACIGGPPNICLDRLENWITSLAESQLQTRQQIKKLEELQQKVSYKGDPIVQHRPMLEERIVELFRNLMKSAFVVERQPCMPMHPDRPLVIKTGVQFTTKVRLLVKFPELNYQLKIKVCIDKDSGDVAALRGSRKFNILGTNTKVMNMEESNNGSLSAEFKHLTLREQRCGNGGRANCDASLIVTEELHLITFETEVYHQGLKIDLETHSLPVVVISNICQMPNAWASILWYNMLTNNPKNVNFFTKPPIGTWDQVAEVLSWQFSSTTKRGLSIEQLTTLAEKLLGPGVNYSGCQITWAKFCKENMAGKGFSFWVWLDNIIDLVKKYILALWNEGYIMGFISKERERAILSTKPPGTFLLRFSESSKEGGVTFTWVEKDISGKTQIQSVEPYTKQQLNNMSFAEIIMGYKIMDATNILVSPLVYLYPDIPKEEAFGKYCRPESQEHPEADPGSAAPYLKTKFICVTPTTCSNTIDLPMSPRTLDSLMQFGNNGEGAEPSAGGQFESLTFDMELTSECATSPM
Experiment: STAT3 phosphorylation inhibitory effect in cancer cell line by Western blot (Table 2)
Type: cell-based
Design: endogenous in cells; host or cells: unnamed 'rectal cancer cell' line
Settings: rectal cancer cell line, read-out: Concentration at which STAT3 activity (p-STAT3) is inhibited by 50% (μM; IC50)
For each record, check the reported IC50: if it is below 4 µM write class 1, else write class 0.

COMPOUND: C=C(C)C(=O)NC(=O)/C=C/c1ccccc1OCc1ccccc1 [CG187]
CAT: class 1
--
COMPOUND: C#CCOc1ccccc1/C=C/C(=O)N(C)C(=O)C(=C)C [CG165]
CAT: class 1
--
COMPOUND: C=C(C)C(=O)NC(=O)/C=C/c1ccccc1OC [CG126]
CAT: class 1
--
COMPOUND: C=C(C)C(=O)NC(=O)/C=C/c1ccccc1OCc1ccncc1 [CG155]
CAT: class 0
--
COMPOUND: C#CCOc1ccccc1/C=C/C(=O)NC(=O)C(=C)C [CG164]
CAT: class 1
--
COMPOUND: C=C(C)C(=O)NC(=O)/C=C/c1ccccc1C [CG127]
CAT: class 0
--
COMPOUND: C=C(C)C(=O)NC(=O)/C=C/c1ccccc1O [CG133]
CAT: class 0
--
COMPOUND: C=C(C)C(=O)NC(=O)/C=C/c1ccccc1Cl [CG168]
CAT: class 1
